% Blocking listing for selected binders.
- SYSTEM_TESTED: T1, human chemokine (C-C motif) receptor 8 (CCR8) (human, UniProt P51685 1-355)
- T1 construct: On human peripheral blood lymphocytes / PBMC (native) or on human CCR8 GFP-transfected Ba/F3 cells; also called hCCR8; human CCR8
- PROTOCOL: flow cytometry blocking, PBMC CCR8+ CD4+ cells; competitor PE-AB3 (its MFI is read)
Entry rule: numbers only, all in %.

// known answers, use as guide
1) AB15 (antibody, V domains shown, Hybridoma monoclonal; also called antibody 15; clone 15) VH: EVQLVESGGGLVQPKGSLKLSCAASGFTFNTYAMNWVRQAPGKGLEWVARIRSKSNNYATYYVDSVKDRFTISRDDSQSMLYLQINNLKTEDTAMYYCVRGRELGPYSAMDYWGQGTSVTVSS VL: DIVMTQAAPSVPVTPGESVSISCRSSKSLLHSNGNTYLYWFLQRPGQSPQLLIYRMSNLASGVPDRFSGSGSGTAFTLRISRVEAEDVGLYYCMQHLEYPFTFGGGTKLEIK ... -61.4
2) AB12 (antibody, V domains shown, Hybridoma monoclonal; also called antibody 12; clone 12) VH: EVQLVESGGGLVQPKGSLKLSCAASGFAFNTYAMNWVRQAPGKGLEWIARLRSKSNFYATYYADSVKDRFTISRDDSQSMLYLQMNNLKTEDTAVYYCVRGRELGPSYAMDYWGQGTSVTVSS VL: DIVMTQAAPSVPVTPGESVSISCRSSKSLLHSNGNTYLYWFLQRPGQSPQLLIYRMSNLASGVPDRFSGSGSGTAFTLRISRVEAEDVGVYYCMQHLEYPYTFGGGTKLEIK ... -27.5

// next item, % Blocking requested
Data request, read-out % Blocking, for AB11 (antibody, V domains shown, Hybridoma monoclonal; also called antibody 11; clone 11) VH: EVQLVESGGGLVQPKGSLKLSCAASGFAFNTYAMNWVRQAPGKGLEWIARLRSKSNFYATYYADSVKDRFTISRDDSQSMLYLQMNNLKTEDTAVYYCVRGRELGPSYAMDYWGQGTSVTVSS VL: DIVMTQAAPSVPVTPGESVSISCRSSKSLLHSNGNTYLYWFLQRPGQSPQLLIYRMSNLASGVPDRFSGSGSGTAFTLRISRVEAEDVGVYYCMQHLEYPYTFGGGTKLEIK
-61.7
